Please respond with reported log10 IC50 for every item in the list.
biological target: human A2b adenosine receptor (Homo sapiens (Human), UniProt P29275); assay: A2B antagonism in cAMP cell-based assay (LANCE cAMP, HEK293 cells, 600 nM adenosine); conditions: values marked *: cAMP cell-based assay
Sequence (P29275 whole entry): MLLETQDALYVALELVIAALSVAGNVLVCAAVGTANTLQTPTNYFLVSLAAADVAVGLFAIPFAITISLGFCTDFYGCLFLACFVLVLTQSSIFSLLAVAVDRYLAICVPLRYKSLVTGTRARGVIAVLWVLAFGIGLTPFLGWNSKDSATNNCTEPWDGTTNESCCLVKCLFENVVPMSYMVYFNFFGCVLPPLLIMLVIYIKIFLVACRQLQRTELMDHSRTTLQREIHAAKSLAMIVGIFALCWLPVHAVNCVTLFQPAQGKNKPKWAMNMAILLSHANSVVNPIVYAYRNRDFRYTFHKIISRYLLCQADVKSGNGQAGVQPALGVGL
Note: values are log10 of IC50 expressed in nM.

Example entries and their recorded answers appear below.
{"columns": ["Molecule", "Reported value"],
 "data": [
  ["COc1cccc2c1nc(N)n1nc([C@@H]3CCCN(c4cnn(CC(C)(C)OC)c4)C3)nc21", 2.01],
  ["COc1cccc2c1nc(N)n1nc([C@H]3CC[C@H](C)N(c4cnn(CC5(O)CCC5)c4)C3)nc21 [Example 144B]", 2.52],
  ["COc1ccc2c(c1)nc(N)n1nc([C@H]3C[C@@H](C)CN(c4cnn(C(C)(C)CO)c4)C3)nc21 [Example 222C]", 1.13],
  ["CC[C@H]1CC[C@@H](c2nc3c4cccc(OC)c4nc(N)n3n2)CN1c1cnn(CC(C)(C)O)c1 [Example 216C]", 2.47],
  ["CC[C@H]1CC[C@@H](c2nc3c4ccc(OC)cc4nc(N)n3n2)CN1c1cnn(C(C)(C)CO)c1 [Example 215D]", 2.86],
  ["COc1cccc2c1nc(N)n1nc([C@@H]3CCCN(c4cnn(C5CCC5)c4)C3)nc21", 1.67],
  ["COc1cccc2c1nc(N)n1nc([C@@H]3CCCN(c4cncc(F)c4)C3)nc21", 2.32],
  ["COc1ccc2c(c1)nc(N)n1nc([C@@H]3CC[C@H](C)N(c4cn(CC(C)(C)O)nc4C)C3)nc21", 1.44],
  ["COc1cccc2c1nc(N)n1nc([C@@H]3CCCN(c4cnn5c4CCC5)C3)nc21", 2.05],
  ["COc1cccc2c1nc(N)n1nc([C@@H]3CCCN(c4ccn(CC(C)(C)O)n4)C3)nc21", 1.51]
]}

State recorded log10 IC50 for all listed molecules.
1. COc1cccc2c1nc(N)n1nc([C@@H]3CCCN(c4cnn(CCF)c4)C3)nc21
2. COc1cccc2c1nc(N)n1nc([C@H]3CC[C@@H](C)N(c4cn(CC(C)(C)O)nc4C)C3)nc21 [Example 145D]
3. COc1ccc2c(c1)nc(N)n1nc([C@@H]3C[C@@H](C)CN(c4cnn(C(C)(C)CO)c4)C3)nc21 [Example 222D]

Result:
1. 1.49
2. 2.66
3. 2.82

State recorded log10 IC50 for all listed molecules.
1. COc1cccc2c1nc(N)n1nc([C@@H]3CCCN(c4cc(=O)n(C)c5ccccc45)C3)nc21
2. COc1cccc2c1nc(N)n1nc(C3CCC(C)N(c4cnn(CC(F)(F)F)c4)C3)nc21 (single isomer, unassigned) [Example 142A]

Result:
1: 3.77; 2: 2.99
